system: Hs578T; experiment: normalised response (% of control), CellTiter-Glo; higher = more viable cells (100 = DMSO, 0 = benzethonium chloride kill control); settings: incubation time: 72 h
Endpoint label: normalised response (%)
Your answer is read as %, so omit the unit and give the number.

Would you please look over these solved cases?
Compound | Endpoint label | Recorded number
CCN1CCN(c2ccc(Nc3cc(N(C)C(=O)Nc4c(Cl)c(OC)cc(OC)c4Cl)ncn3)cc2)CC1 [NVP-BGJ398] (1 nM) | normalised response | 103
CO[C@H]1C[C@@H]2CC[C@@H](C)[C@@](O)(O2)C(=O)C(=O)N2CCCC[C@H]2C(=O)O[C@H]([C@H](C)C[C@@H]2CC[C@@H](OC(=O)C(C)(CO)CO)[C@H](OC)C2)CC(=O)[C@H](C)/C=C(\C)[C@@H](O)[C@@H](OC)C(=O)[C@H](C)C[C@H](C)/C=C/C=C/C=C/1C [Temsirolimus] (0.1 nM) | normalised response | 88.2
CC[C@]1(O)C[C@@H]2CN(CCc3c([nH]c4ccccc34)[C@@](C(=O)OC)(c3cc4c(cc3OC)N(C)[C@H]3[C@@](O)(C(=O)OC)[C@H](OC(C)=O)[C@]5(CC)C=CCN6CC[C@]43[C@@H]65)C2)C1 [Vinblastine] (100 nM) | normalised response | 22.4
CCN1CCN(c2ccc(Nc3cc(N(C)C(=O)Nc4c(Cl)c(OC)cc(OC)c4Cl)ncn3)cc2)CC1 [NVP-BGJ398] (0.1 nM) | normalised response | 97.3
O=C(c1ccc(C(=O)N2CCC(N3CCCC3)CC2)c(Nc2ccccc2)c1)N1CCC(N2CCCC2)CC1 [UNC1215] (30 nM) | normalised response | 103

Note: attention shifts to another entry.
## Task May I ask what normalised response has been recorded for CC[C@]1(O)C[C@@H]2CN(CCc3c([nH]c4ccccc34)[C@@](C(=O)OC)(c3cc4c(cc3OC)N(C)[C@H]3[C@@](O)(C(=O)OC)[C@H](OC(C)=O)[C@]5(CC)C=CCN6CC[C@]43[C@@H]65)C2)C1 [Vinblastine] (1 nM) ?
## Result 102

FYI, the data here is from the supplement of paper PMC4862054.
